Biological target: T1, cyno pro-myostatin (cynomolgus monkey, Biotinylated for capture in the SPR assay (site not stated). The native form is a disulfide-linked homodimer, partly furin-cleaved; one chain is given.)
T1 construct: also called proGDF8 (cynomolgus); cynomolgus monkey pro-myostatin
Experiment: SPR Biacore 8K, biotin-antigen captured
pKd: −log10 of the molar value.
Mark No for pKd values under 10, and Yes for everything at or above.

// query Could you tell me if the measured pKd of Ab123 (antibody, human IgG4 S228P, kappa, V domains shown) VH: EVQLVESGGGLVQPGGSLRLSCAASGFTFSKYDMSWVRQAPGKGLELVASISSSGGTRYYPDSVKGRFTISRDNAKNSLYLQMNSLRAEDTAVYYCAKDLWVASPGYGMDVWGQGTTVTVSS VL: DIVMTQSPLSLPVTPGEPASISCRSSQSLLHSSGHNYLHWYLQKPGQSPQLLIYLGSIRAPGVPDRFSGSGSGTDFTLKISRVEAEDVGVYYCMQALLNPPTFGGGTKVEIKR reaches 10 or more?
// result No

// query Could you tell me if the measured pKd of Ab128 (antibody, human IgG4 S228P, kappa, V domains shown) VH: EVQLVESGGGLVQPGGSLRLSCTASGFTLSSYSMDWVRQAPGKGLEWVSYITGSGDTTYYADSVKGRFTISRDNAKNTLYLQMNSLRAEDTAVYYCARGFGWISGWAEDYFDYWGQGTLVTVSS VL: DIQMTQSPSSLSASVGDRVTITCQASQSVYSYLNWYQQKPGKAPKLLIYGASRLEGGVPSRFSGSGSGTDFTFTISSLQPEDIATYYCQQHSTDQRTFGGGTKVEIKR reaches 10 or more?
// result No

// query Could you tell me if the measured pKd of Ab115 (antibody, human IgG4 S228P, kappa, V domains shown) VH: QVQLVQSGAEVKKPGASVKVSCKVSGYAFTNYNIHWVRQAPGKGLEWMGGINPRTGGTIYAQKFQGRVTMTEDTSTDTAYMELSSLKSEDTAVYYCAKDIYTGVAVAGSGMDYWGQGTLVTVSS VL: DIQMTQSPSSVSASVGDRVTITCRASQGISTHLAWYQQKPGKAPKLLIYGASNLESGVPSRFSGSGSGTDFTLTISSLQPEDFANYYCQQANSFPWTFGGGTKVEIKR reaches 10 or more?
// result No

// query Could you tell me if the measured pKd of Ab102 (antibody, human IgG4 S228P, kappa, V domains shown) VH: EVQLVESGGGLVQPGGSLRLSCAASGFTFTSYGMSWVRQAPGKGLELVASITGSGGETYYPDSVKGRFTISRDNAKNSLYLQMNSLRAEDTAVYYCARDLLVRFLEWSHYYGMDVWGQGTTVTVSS VL: DIVMTQSPLSLPVTPGEPASISCRSSQSLLHSSGHNFLHWYLQKPGQSPQLLIYETSNRAPGIPDRFSGSGSGTDFTLKISRVEAEDVGVYYCMQATQFPRPFGGGTKVEIKR reaches 10 or more?
// result Yes

// query Could you tell me if the measured pKd of Ab114 (antibody, human IgG4 S228P, kappa, V domains shown) VH: QVQLVQSGAEVKKPGASVKVSCKVSGGTFRSYTIHWVRQAPGKGLEWMGGMNPSSGHTIYAQKFQGRVTMTEDTSTDTAYMELSSLKSEDTAVYYCARGLDYGEGYYYYGMDVWGQGTTVTVSS VL: DIQMTQSPSSVSASVGDRVTITCRASQGISESLAWYQQKPGKAPKLLIYSASSLESGVPSRFSGSGSGTDFTLTISSLQPEDFANYYCQQGYSSPPYTFGGGTKVEIKR reaches 10 or more?
// result No

// query Could you tell me if the measured pKd of Ab105 (antibody, human IgG4 S228P, kappa, V domains shown) VH: EVQLVESGGGLVQPGGSLRLSCAASGSAFSSYGMSWVRQAPGKGLELVASIGGTGATYYPDSVKGRFTISRDNAKNSLYLQMNSLRAEDTAVYYCARDLLVRFLEWGHYYGMDVWGQGTTVTVSS VL: DIVMTQSPLSLPVTPGEPASISCRSSQSLLHSSGYNFLHWYLQKPGQSPQLLIYAASSRAPGIPDRFSGSGSGTDFTLKISRVEAEDVGVYYCMHGGQGPTFGGGTKVEIKR reaches 10 or more?
// result Yes
